Listed here are binders together with their documented cAMP release, % activity, 10 nM.
biological target: human GLP-1 receptor (human, UniProt P43220 24-463); experiment: cell-based or functional assay
Sequence (P43220 24-463): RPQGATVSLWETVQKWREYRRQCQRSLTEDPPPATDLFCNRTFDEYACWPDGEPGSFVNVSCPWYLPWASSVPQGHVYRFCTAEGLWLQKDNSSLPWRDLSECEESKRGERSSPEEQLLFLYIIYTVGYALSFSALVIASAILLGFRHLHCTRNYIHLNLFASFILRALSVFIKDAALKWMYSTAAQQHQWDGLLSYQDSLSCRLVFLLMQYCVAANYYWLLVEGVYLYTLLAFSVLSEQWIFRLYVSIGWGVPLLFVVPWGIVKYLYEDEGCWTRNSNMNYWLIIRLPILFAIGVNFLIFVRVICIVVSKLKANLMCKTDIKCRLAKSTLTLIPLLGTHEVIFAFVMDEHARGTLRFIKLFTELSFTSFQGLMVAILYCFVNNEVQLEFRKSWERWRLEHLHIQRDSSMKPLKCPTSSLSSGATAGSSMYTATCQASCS
Starred links: 1 amine or outer side, 2 acyl side, 3 side chain; linkers in the order of their positions; H or OH if unused. Non-standard residues stand in square brackets, D forms with d. No end group written: not given here. *: point of attachment. AMCB = 2-amino-5-(4-chloro-2-methylphenyl)pentanoic acid, Cc1cc(Cl)ccc1CCC[C@H](N[*:1])C(=O)[*:2]; Bip(2'-Et-4'-OMe) = CCc1cc(OC)ccc1-c1ccc(C[C@H](N)C(=O)O)cc1; Nva(5-(3,5-Me2Ph)) = Cc1cc(C)cc(CCC[C@H](N)C(=O)O)c1; 2F‑APPA = 2-amino-5-(2-fluorophenyl)pentanoic acid; αMePhe(2-F) = C[C@](N)(Cc1ccccc1F)C(=O)O; hhPhe = N[C@@H](CCCc1ccccc1)C(=O)O; aThr = C[C@H](O)[C@H](N)C(=O)O; CNB = not defined here; Ac3c = NC1(C(=O)O)CC1; Aib = CC(C)(N)C(=O)O; Moc = COC(=O)*
measured-attribute: cAMP release, % activity, 10 nM (%)

# binder, measure-unit, reported-value
measured = [
    ("Moc-H[Aib]QG[aThr][αMePhe(2-F)][aThr]SD[Bip(2'-Et-4'-OMe)][2F‑APPA] (also: reduced (CH2) bonds between 9-10 and 10-11) [Seq. ID. No. 200: CH3OCO-H-Aib-QG-T(allo)-(α-Me-2F-Phe)-T(allo)-SD-(CH2)-Bip(OMe)-(CH2)-(2F-APPA)]", "%", 88),
    ("HAQGTFTSD[Bip(2'-Et-4'-OMe)][AMCB] [Seq. ID. No. 16: HAQGTFTSD-Bip(OMe)-(AMCB)]", "%", 99),
    ("H[Aib][CNB]G[aThr][αMePhe(2-F)]TSD[Bip(2'-Et-4'-OMe)][2F‑APPA] (reading uncertain) [Seq. ID. No. 112: H-Aib-(CNB)-G-T(allo)-(α-Me-2F-Phe)-TSD-Bip(OMe)-(2F-APPA)]", "%", 81),
    ("H[Ac3c]QGTFTSD[Bip(2'-Et-4'-OMe)][Nva(5-(3,5-Me2Ph))] [Seq. ID. No. 22: H-(ACP)-QGTFTSD-Bip(OMe)-(ADMP)]", "%", 99),
    ("H[Aib][CNB]G[aThr][αMePhe(2-F)][aThr]SD[Bip(2'-Et-4'-OMe)][hhPhe] (reading uncertain; also: thioamide bond between residues 10 and 11) [Seq. ID. No. 166: H-Aib-(CNB)-G-T(allo)-(α-Me-2F-Phe)-T(allo)-SD-Bip(OMe)-(C═S)-(APPA)]", "%", 99),
]
